Tested on: SNB-19 CNS
Assay: NCI-60 one-dose screen, 48 h (100 = growth as untreated, 0 = no growth, -100 = all killed)
Settings: 10 µM unless noted
Compounds without any hit were thinned out: in the full panel of roughly 83,000, 20% have a hit.
Rule: growth below 80% gives condition met. Equal to or above 80% gives condition not met.

[
  {
    "Compound": "C#CCC(C)(O)/C=C/C1=C(C)CCCC1(C)C (centres undefined)",
    "Class Name": "condition not met"
  },
  {
    "Compound": "CN(CSc1ccc(Cl)cc1)c1ccc(CSc2ccc(Cl)cc2)cc1",
    "Class Name": "condition not met"
  },
  {
    "Compound": "Cc1oc(-c2ccccc2Cl)cc1C(=O)Nc1ccc(S(N)(=O)=O)cc1",
    "Class Name": "condition not met"
  },
  {
    "Compound": "COC(=O)[C@]12CC[C@@H](C)[C@H](C)[C@@H]1C1=CC[C@@H]3[C@@]4(C)C[C@@H](OC(C)=O)[C@H](O)[C@@](C)(CO)[C@@H]4[C@H](O)C[C@@]3(C)[C@]1(C)CC2",
    "Class Name": "condition met"
  },
  {
    "Compound": "O=C(O)c1cccc2c1C(=O)N(c1ccc3c(c1)Cc1ccccc1-3)C2=O",
    "Class Name": "condition not met"
  },
  {
    "Compound": "O=C(/C=C/c1cccc2ccccc12)Nc1ncc(Cc2ccccc2)s1",
    "Class Name": "condition met"
  },
  {
    "Compound": "COc1ccc(-c2n[nH]nc2-c2cc3ccccc3s2)cc1O",
    "Class Name": "condition met"
  },
  {
    "Compound": "CCN1CCN(C(=O)[C@]23CCC(C)(C)C[C@@H]2C2=CC[C@@H]4[C@@]5(C)C/C(=C/c6ccncc6)C(=O)C(C)(C)[C@@H]5CC[C@@]4(C)[C@]2(C)CC3)CC1",
    "Class Name": "condition met"
  },
  {
    "Compound": "CCCCN1CCCCn2c1nc1c2c(=O)n(C)c(=O)n1C",
    "Class Name": "condition not met"
  }
]

Each recorded value in this set is attributed to PubChem BioAssay (NCI).
